# Test system: IGROV-1
# PROCEDURE_TEXT: NCI tumour cell line growth inhibition, 48 h
Calls of active or inactive are those of the source. No stated cut-off is given here; in the data, active = GI50 up to about 1.1 µM and inactive = higher.
// classify into true (1) = active, false (0) = inactive

[
  {
    "COMPOUND": "Cc1ccc(NC(=O)CC/C(CC(=O)C(C)(C)C)=N/Nc2nnc(C)n2N)cc1C",
    "TARGET_OF_ASSAY": "IGROV-1",
    "LABEL_CLASS": "false (0)"
  }
]

Task: What did this assay record as the result for CC(C)c1cccc2sc(NC(=O)C(=O)CC(=O)c3ccc(F)cc3)nc12 ?
Result: false (0)

Task: What is the recorded call for this compound in the test? c1ccc(/N=C2\c3ccsc3/C(=N/c3ccccc3)c3ccsc32)cc1
Result: false (0)

Task: // outcome(item) with item = Cn1c2ccccc2c(=NNc2ccc(S(N)(=O)=O)cc2)c2ccccc21
Result: false (0)

Task: Returns: the outcome recorded for Nc1nc2c(ncn2Cc2ccccc2CO)c(=O)[nH]1 in this assay.
Result: false (0)

Task: // outcome(item) with item = C[C@@H]1[C@H](O)CC2=C(CC[C@@H](O)C2(C)C)[C@@]1(CO)CCc1ccoc1
Result: false (0)

Task: Recorded call for Cc1cc(NS(=O)(=O)c2ccc(NC(=O)c3cccc4c(Nc5ccc(S(=O)(=O)Nc6cc(C)on6)cc5)c5ccc(Cl)cc5nc34)cc2)no1 ?
Result: false (0)

Task: Returns: the outcome recorded for Cc1cccc2c(=O)c3c(O)cc4c(c3n(C)c12)C=CC(C)(C)O4 in this assay.
Result: false (0)

Task: Please state the recorded outcome for this compound: CCOC(=O)C(=[N+]=[N-])C(=O)CN1C(=O)C2CC(C)=C(C)CC2C1O (stereo not drawn)
Result: false (0)

Task: Outcome? C[C@]1(CO)CCC[C@@]2(C)C1CC[C@H]1CC3C[C@]12CC[C@]3(C)O (stereo partly drawn)
Result: false (0)

Task: Hi, do you know how CC1(C)COC(c2ccc(C(=O)c3ccc(Cl)cc3)cc2)=N1 came out in this test?
Result: false (0)

Task: Give the logged outcome of this assay for the following compound: CCCCCC1=C/C(=C\c2[nH]c(-c3ccc[nH]3)cc2OC)N=C1C
Result: true (1)

Task: Outcome logged for COc1ccc(/C=C/C=C2C(=O)NC(=S)NC2=O)cc1 in this assay:
Result: false (0)

Task: Assay outcome for C=C1C(=O)O[C@@H]2CC(CO)=C([C@@H](C)CCCO)[C@@H](OC(=O)/C(C)=C\C)[C@H]12 : what was it?
Result: false (0)

Task: Dear colleague, could you share the recorded outcome for N#C/C(=C\c1ccc(CP(=O)(O)O)cc1)C(N)=O when you have a moment?
Result: false (0)

Task: # outcome recorded in this test, key = O=C1CSC2(CC(/C=C/c3cccs3)=NN2c2cccc(S(=O)(=O)O)c2)N1c1nc2ccccc2s1 (stereo not drawn)
Result: false (0)

Task: Would you mind telling me which call this test gave NC(Cc1ncccn1)C(=O)O (stereo not drawn) ?
Result: false (0)

---

# Tested on: BT-549
# PROCEDURE_TEXT: NCI tumour cell line growth inhibition, 48 h
Calls of active or inactive are those of the source. Cut-off read from the data, not from the text of the source: active = GI50 up to about 1.1 µM and inactive = higher.
Outcome (select one): yes (1) for active, no (0) for inactive

Examples with answers:
[
  {
    "MOLECULE": "C[C@H]1C(=O)C2=C[C@H]1CCC(=O)[C@]1(C)CCCC(C)(C)[C@H]1C[C@H]2O",
    "LABEL_CLASS": "no (0)"
  },
  {
    "MOLECULE": "O=c1[nH]c2cc(F)c(F)cc2nc1Cc1ccccc1",
    "LABEL_CLASS": "no (0)"
  },
  {
    "MOLECULE": "CN(Cc1ccccc1)/C(=N\\C#N)N(Cc1ccccc1)Cc1ccccc1",
    "LABEL_CLASS": "no (0)"
  },
  {
    "MOLECULE": "N#CC1(C#N)NC(c2ccccc2)C(C#N)(C#N)NC1c1ccccc1 (stereo not drawn)",
    "LABEL_CLASS": "no (0)"
  },
  {
    "MOLECULE": "S=C(Nc1ccccc1)N(Cc1ccccc1)c1ccccc1",
    "LABEL_CLASS": "yes (1)"
  },
  {
    "MOLECULE": "NC(Cc1ncccn1)C(=O)O (stereo not drawn)",
    "LABEL_CLASS": "no (0)"
  }
]

Task: Please indicate how the test categorized CN(C)c1ccc(/C=N/N=C2\C(=O)Nc3c(Cl)cc(Cl)cc32)cc1 .
Result: no (0)

Task: Outcome logged for COc1ccc(/C=C/C=C2C(=O)NC(=S)NC2=O)cc1 in this assay:
Result: no (0)

---

Recorded GI50 by entry
# Tested on: SNB-78
# PROCEDURE_TEXT: NCI tumour cell line growth inhibition, 48 h
Activity calls are given as the source filed them. Rule as the data show it: active = GI50 up to about 1.1 µM and inactive = higher.

Guide cases for GI50, answers given:
[
  {
    "MOLECULE": "O=C1C2=C(CC3C(C2)C3(Br)Br)C(=O)C2=C1CC1C(C2)C1(Br)Br (configuration not stated)",
    "GI50": "> 100 µM (inactive)"
  },
  {
    "MOLECULE": "CCCCCCCCCCNC(=S)OC",
    "GI50": "53.3 µM (inactive)"
  },
  {
    "MOLECULE": "COC(=O)C(C#N)=C1c2ccccc2Oc2ccccc21",
    "GI50": "28.6 µM (inactive)"
  },
  {
    "MOLECULE": "NC1=NC2=C(CCCC2)C(c2cccs2)S1 (configuration not stated)",
    "GI50": "> 100 µM (inactive)"
  }
]

Consider now this further molecule.
Task: With SNB-78 as the test system, provide measured GI50 for this molecule: O=C1C(=Cc2ccc([N+](=O)[O-])o2)C(=O)N(CCc2ccccc2)S(=O)(=O)N1CCc1ccccc1
Result: 26.1 µM (inactive)

---

# Test system: TK-10
# PROCEDURE_TEXT: NCI tumour cell line growth inhibition, 48 h
Activity calls are given as the source filed them. No stated cut-off is given here; in the data, active = GI50 up to about 1.1 µM and inactive = higher.
MEASUREMENT_KIND: GI50

// worked examples, GI50 included
[
  {
    "COMPOUND": "Nc1ccc(Nc2cc(=O)[nH]c(=O)[nH]2)cc1Cl",
    "RECORDED_MEASUREMENT": "> 100 µM (inactive)"
  },
  {
    "COMPOUND": "CCOP(=O)(OCC)C(Cc1ccc(Cl)cc1)NS(=O)(=O)c1ccc(C)cc1 (stereo unspecified)",
    "RECORDED_MEASUREMENT": "> 100 µM (inactive)"
  },
  {
    "COMPOUND": "COC(=O)C(C(=O)OC)C1CCCC(=O)C1 (stereo unspecified)",
    "RECORDED_MEASUREMENT": "> 100 µM (inactive)"
  }
]

Task: // fetch GI50 for O=C(c1cccs1)N1CCN(C(=O)c2cccs2)C1=S ; system: TK-10
Result: 5.4 µM (inactive)

Task: Print TK-10 GI50 for Cc1cc(NC(=O)C(=O)Cc2cnc3ccccc3n2)c(S(=O)(=O)O)cc1Cl .
Result: > 100 µM (inactive)

Task: State the measured GI50 (TK-10) of O=C1NNC(=O)c2ccccc2SSc2ccccc2C(=O)NNC(=O)c2ccccc2SSc2ccccc21
Result: 36.9 µM (inactive)

Task: Provide TK-10 GI50 reading for N#CC(/N=N/c1ccc(Cl)cc1)c1nc2ccccc2o1 (stereo unspecified) .
Result: 56.6 µM (inactive)

Task: Provide the reported GI50 (system: TK-10) for CC(=O)CSc1c(-c2ccccc2)c(=O)n(-c2ccccc2)c(=S)n1-c1ccccc1
Result: > 100 µM (inactive)

Task: Please report the measured GI50 for C[C@@H]1[C@H](O)CC2=C(CC[C@@H](O)C2(C)C)[C@@]1(CO)CCc1ccoc1 tested on TK-10.
Result: > 50 µM (inactive)

Task: Send back TK-10 GI50 of Cc1cc(N(C)C)ccc1/N=N/c1ccc2ncccc2c1 only.
Result: 25.6 µM (inactive)

Task: Provide TK-10 GI50 reading for CCOC(=O)c1sc2ncnc(N)c2c1C .
Result: 34 µM (inactive)

Task: Specify GI50 for CC1(C)C(c2ccccc2)=NN(O)c2ccccc21 , system TK-10.
Result: > 100 µM (inactive)

Task: For TK-10, give the measured GI50 of the entry CCSc1cc(C(=O)OC)c2n(c1=O)CCCC2
Result: > 100 µM (inactive)

---

This section presents compounds with their documented GI50 values.
# System: SNB-19
# PROCEDURE_TEXT: NCI tumour cell line growth inhibition, 48 h
The source made the active and inactive calls. Rule as the data show it: active = GI50 up to about 1.1 µM and inactive = higher.

Example compounds with recorded GI50:
[
  {
    "COMPOUND": "COc1cc2c(cc1O)[C@@]1(Cc3ccc(OC)c(OC)c3)CCC(=O)N1CC2",
    "GI50": "> 100 µM (inactive)"
  },
  {
    "COMPOUND": "CCOC(=O)/C(C(=O)c1ccc[nH]1)=C1/CCCN1C",
    "GI50": "> 100 µM (inactive)"
  },
  {
    "COMPOUND": "COC1C(O)C(O[C@H]2CC[C@@]3(C)C(CC[C@@H]4[C@@H]3CC[C@]3(C)[C@@H](C(C)OC5OC(CO)C(O)C(O)C5O)CC[C@]43O)C2)OC(C)C1OC1OC(CO)C(O)C(O)C1O (some centres not stated)",
    "GI50": "> 100 µM (inactive)"
  },
  {
    "COMPOUND": "Cc1ccc(/C=C/C(=O)CCN(C)C)cc1",
    "GI50": "26.3 µM (inactive)"
  },
  {
    "COMPOUND": "CC(=O)O[C@H]1CCC(C)=CCC[C@@]2(C)C(CC[C@@H]2[C@@H](C)/C=C/C(C)C)c2ccc(cc2C(=O)O)C1 (some centres not stated)",
    "GI50": "3.04 µM (inactive)"
  }
]

With those in mind, consider the next compound.
Task: System SNB-19. Read-out GI50. Item Cc1cc(C)c(S(=O)(=O)N(CCCN)OCCCN)c(C)c1 . Report value.
Result: > 100 µM (inactive)

Where these numbers come from: ChEMBL document CHEMBL1201862
